target: T1, WWP2 recombinant protein (SEQ ID NO:24) (Homo sapiens (Human), UniProt O00308 1-870); assay: fluorescence polarization, WWP2 dose-response up to 19.6 µM, FITC-peptide probe at 5 nM
T1 construct: It was expressed with a pET28b His-tag/thrombin leader; also called WWP2 polypeptide; Nedd4 WWP2
T1 sequence (O00308 other isoform, or with tags, fused parts or gaps limits assumed): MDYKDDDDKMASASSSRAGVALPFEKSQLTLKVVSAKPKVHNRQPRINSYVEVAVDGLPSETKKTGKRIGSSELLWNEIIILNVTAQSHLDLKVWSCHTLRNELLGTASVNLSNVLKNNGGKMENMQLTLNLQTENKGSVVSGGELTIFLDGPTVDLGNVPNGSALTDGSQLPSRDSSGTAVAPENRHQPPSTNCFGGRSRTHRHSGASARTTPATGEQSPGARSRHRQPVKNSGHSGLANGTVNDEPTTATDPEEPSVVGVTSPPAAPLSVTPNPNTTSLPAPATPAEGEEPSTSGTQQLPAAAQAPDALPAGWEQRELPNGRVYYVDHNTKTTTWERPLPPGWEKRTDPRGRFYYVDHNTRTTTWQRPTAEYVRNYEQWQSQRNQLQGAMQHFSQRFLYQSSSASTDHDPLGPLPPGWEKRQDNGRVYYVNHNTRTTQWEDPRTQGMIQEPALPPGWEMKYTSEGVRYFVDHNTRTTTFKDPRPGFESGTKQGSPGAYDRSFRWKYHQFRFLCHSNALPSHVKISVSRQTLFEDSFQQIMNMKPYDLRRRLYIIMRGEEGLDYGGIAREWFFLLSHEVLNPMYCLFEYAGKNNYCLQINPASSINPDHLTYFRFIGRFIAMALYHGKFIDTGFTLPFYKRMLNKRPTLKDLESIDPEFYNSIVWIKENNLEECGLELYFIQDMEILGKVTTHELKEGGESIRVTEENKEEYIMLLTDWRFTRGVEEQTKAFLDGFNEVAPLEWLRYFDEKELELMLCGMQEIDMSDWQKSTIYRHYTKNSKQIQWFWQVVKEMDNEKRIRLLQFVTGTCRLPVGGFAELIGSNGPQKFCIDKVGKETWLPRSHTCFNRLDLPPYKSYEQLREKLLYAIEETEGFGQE
No end group written: not given here. *: point of attachment. FITC = O=C1OC2(c3ccc(O)cc3Oc3cc(O)ccc32)c2ccc(NC(=S)*)cc21
MEASURED QUANTITY: Kd

{"BINDER": "{FITC}-ATASAPPPYVGSGGGATASAPPPYVGSGGGATASAPPPYVGSGGGRRR (Synthetic peptide (Biosynthesis, TX); also called FITC-peptide; FTIC-peptide)", "MEASURED QUANTITY": "Kd", "EXPERIMENTAL RESULT": "200 nM"}
